molecular target: human ether-a-go-go related gene (hERG) channel (Homo sapiens, UniProt Q12809); construct: expressed in transfected cells; host or cells: HEK293; assay: hERG test, whole-cell patch-clamp, IKr; format: cell-based; settings: 1 μmol/L compound; HEK293 cell expressing hERG
Sequence (Q12809 whole entry): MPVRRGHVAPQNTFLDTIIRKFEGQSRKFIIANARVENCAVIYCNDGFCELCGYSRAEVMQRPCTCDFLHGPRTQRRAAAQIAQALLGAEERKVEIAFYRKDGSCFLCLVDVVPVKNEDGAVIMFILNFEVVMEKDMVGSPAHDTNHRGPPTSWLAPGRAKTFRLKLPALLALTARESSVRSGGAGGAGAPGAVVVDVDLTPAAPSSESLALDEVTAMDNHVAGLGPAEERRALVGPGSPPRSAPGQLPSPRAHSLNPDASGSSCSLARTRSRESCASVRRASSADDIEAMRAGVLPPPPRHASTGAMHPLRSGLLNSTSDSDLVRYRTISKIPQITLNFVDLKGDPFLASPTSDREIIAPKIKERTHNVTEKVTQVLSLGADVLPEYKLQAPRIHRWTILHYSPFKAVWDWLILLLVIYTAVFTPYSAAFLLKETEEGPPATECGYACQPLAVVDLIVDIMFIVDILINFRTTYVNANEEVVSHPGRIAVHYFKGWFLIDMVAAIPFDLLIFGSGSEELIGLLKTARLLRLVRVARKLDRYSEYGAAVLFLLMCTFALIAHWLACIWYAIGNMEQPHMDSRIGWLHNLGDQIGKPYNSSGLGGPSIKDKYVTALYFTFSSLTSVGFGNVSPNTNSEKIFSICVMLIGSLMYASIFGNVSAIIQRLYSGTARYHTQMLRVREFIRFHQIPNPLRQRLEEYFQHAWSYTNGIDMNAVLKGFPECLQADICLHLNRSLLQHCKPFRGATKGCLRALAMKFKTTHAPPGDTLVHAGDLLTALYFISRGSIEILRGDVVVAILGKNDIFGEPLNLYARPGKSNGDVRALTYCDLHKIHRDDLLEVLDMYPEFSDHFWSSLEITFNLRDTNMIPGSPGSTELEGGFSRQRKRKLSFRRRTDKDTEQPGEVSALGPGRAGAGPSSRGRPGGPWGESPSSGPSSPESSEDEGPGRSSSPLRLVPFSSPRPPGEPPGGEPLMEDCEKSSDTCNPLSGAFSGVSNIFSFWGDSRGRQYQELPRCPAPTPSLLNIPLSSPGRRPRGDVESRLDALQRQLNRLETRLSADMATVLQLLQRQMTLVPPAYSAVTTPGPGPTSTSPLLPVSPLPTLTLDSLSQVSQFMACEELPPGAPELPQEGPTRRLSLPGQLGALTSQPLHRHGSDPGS
REPORTED ENDPOINT: hERG inhibition ratio for the maximum tail current (IKr) (%)

>  <MOLECULE SMILES>
O=C(O)c1ccccc1Nc1ccc2c(n1)N(C(=O)Nc1ccccc1)CCO2

>  <TARGET ENTITY>
human ether-a-go-go related gene (hERG) channel (Homo sapiens, UniProt Q12809)

>  <QUANTITATIVE RESULT>
15

$$$$
>  <MOLECULE SMILES>
O=C(O)c1cccc(Nc2cnc3c(c2)OCCN3C(=O)Nc2ccccc2)c1

>  <TARGET ENTITY>
human ether-a-go-go related gene (hERG) channel (Homo sapiens, UniProt Q12809)

>  <QUANTITATIVE RESULT>
11.1

$$$$
>  <MOLECULE SMILES>
O=C(O)c1ccc(Nc2cnc3c(c2)OCCN3C(=O)Nc2ccccc2)cc1

>  <TARGET ENTITY>
human ether-a-go-go related gene (hERG) channel (Homo sapiens, UniProt Q12809)

>  <QUANTITATIVE RESULT>
8.7

$$$$
>  <MOLECULE SMILES>
O=C(O)c1ccc(-c2ccc3c(n2)N(C(=O)Nc2ccccc2)CCO3)s1

>  <TARGET ENTITY>
human ether-a-go-go related gene (hERG) channel (Homo sapiens, UniProt Q12809)

>  <QUANTITATIVE RESULT>
1

$$$$
